- study target: T1, Rb^P I703V (human, UniProt P06400 380-788, I703V)
- T1 construct: also called variant 65
- T1 sequence (looked up): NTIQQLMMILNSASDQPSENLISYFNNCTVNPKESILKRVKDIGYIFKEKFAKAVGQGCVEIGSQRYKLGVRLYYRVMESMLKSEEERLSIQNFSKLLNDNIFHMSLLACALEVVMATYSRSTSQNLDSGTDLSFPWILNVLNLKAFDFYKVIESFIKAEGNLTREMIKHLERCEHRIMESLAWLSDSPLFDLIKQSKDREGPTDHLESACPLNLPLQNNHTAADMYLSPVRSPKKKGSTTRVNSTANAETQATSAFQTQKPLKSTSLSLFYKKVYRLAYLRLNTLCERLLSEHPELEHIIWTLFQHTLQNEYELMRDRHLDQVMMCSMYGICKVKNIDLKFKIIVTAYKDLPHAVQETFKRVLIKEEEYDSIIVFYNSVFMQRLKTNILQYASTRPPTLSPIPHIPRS
- experimental details: fluorescence polarisation; 25 °C; unlabeled Rb^P titrated against 1.5 nM TMR-E2F1^TD or 7.5 nM TMR-E7^LxCxE; 25 mM Tris pH 8.0, 200 mM NaCl, 1 mM DTT, 0.1% Tween-20; 2 min incubation; quadratic fit; apparent Kd for the variants, Kd for WT
- experimental context: both partners purified
No end group written: not given here. TMR = tetramethyl rhodamine dye

{"columns": ["binder", "Kd, nM"],
 "data": [
  ["DLYCYEQLN (also: TMR label, position not given here, source: synthetic peptide, bought: GenScript) [TMR-E7^LxCxE, LxCxE peptide of the E7 oncoprotein from HPV]", 21],
  ["{TMR}-GEGIRDLFDCDFGDLTPLD (also called E2F^TD; source: synthetic peptide, bought: GenScript) [TMR-E2F1^TD, peptide of the E2F1 transactivation domain]", 20]
]}
